Target: T1, EsCas13d, nuclease-dead (Eubacterium siraeum, UniProt B0MS50, R295A;H300A;R849A;H854A)
T1 sequence: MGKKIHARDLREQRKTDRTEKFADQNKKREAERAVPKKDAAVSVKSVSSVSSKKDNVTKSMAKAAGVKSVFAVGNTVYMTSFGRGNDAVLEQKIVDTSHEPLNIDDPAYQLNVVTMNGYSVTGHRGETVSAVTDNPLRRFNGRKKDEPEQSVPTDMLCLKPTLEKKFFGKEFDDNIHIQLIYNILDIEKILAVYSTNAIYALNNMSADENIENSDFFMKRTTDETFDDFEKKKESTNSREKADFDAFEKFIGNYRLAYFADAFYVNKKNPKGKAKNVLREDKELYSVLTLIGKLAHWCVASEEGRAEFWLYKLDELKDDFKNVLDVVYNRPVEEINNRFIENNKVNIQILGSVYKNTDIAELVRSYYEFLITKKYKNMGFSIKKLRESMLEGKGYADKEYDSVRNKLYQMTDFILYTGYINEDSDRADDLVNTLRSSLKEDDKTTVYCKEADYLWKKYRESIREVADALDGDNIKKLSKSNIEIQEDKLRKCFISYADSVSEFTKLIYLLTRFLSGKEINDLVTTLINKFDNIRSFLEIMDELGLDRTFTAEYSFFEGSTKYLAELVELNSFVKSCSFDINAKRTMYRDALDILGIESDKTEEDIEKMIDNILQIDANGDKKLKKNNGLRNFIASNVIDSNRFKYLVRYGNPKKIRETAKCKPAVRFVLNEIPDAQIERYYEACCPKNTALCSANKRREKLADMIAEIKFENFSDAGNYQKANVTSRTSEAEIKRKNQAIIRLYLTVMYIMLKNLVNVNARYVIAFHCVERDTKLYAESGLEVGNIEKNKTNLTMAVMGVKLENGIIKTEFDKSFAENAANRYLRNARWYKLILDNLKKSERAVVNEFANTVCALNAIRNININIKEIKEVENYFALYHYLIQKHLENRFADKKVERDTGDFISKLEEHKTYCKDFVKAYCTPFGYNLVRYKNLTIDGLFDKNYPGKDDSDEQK
Assay: crRNA (strand 1, pre-loaded); Mg2+; 40 mM Tris-HCl pH 7.5, 150 mM NaCl, 6 mM MgCl2, 1 mM DTT, 0.1% Tween-20, 0.2 mg/ml BSA; 25 C; 10 min per concentration, then washed
Conditions: tags: His6-TwinStrep-SUMO cleaved; N-terminal SNAP kept (SNAP-Surface 488); label: 3' end held by stalled T7 RNA polymerase
# rule met = Kd below 20 nM (exclusive); rule not met = Kd at/above 20 nM

>>> class("target 1 C4A,U11C (mixed) RNA 1: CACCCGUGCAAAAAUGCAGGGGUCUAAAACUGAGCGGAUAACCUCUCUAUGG RNA 2: GGGAAUGGAUCCACAUCUACGAAUUCGUACCAUAGAGAGGCUAUCCGAUCACCGAGAUCGGAAGAGCACACGU")
"rule met"
>>> class("target 1 MT 5'PFS GCC 3'PFS UGA (mixed) RNA 1: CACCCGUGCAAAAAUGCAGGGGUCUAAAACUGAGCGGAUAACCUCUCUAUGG RNA 2: GGGAAUGGAUCCACAUCUACGAAUUCGCCCCAUAGAGAGGUUAUCCGCUCAUGAAGAUCGGAAGAGCACACGU")
"rule met"
>>> class("target 2 MT 5'PFS GCG 3'PFS CUU (mixed) RNA 1: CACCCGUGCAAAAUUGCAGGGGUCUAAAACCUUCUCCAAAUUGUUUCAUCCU RNA 2: GGGAAUGGAUCCACAUCUACGAAUUCGCGAGGAUGAAACAAUUUGGAGAAGCUUAGAUCGGAAGAGCACACGU")
"rule not met"
>>> class("target 1 insA 3' of 21,insU 3' of 7 (mixed) RNA 1: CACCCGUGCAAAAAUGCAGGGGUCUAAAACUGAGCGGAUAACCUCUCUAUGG RNA 2: GGGAAUGGAUCCACAUCUACGAAUUCGUACCAAUAGAGAGGUUAUCUCGCUCACCGAGAUCGGAAGAGCACACGU")
"rule not met"
>>> class("target 2 MT 5'PFS AGC 3'PFS AAG (mixed) RNA 1: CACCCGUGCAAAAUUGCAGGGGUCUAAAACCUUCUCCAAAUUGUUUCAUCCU RNA 2: GGGAAUGGAUCCACAUCUACGAAUUCAGCAGGAUGAAACAAUUUGGAGAAGAAGAGAUCGGAAGAGCACACGU")
"rule met"
>>> class("target 1 MT 5'PFS UUU 3'PFS ACU (mixed) RNA 1: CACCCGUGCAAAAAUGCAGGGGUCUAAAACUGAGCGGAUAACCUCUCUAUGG RNA 2: GGGAAUGGAUCCACAUCUACGAAUUCUUUCCAUAGAGAGGUUAUCCGCUCAACUAGAUCGGAAGAGCACACGU")
"rule not met"
>>> class("target 1 U8C,A14G (mixed) RNA 1: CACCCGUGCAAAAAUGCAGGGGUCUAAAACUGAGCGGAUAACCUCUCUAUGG RNA 2: GGGAAUGGAUCCACAUCUACGAAUUCGUACCAUAGAGGGGUUACCCGCUCACCGAGAUCGGAAGAGCACACGU")
"rule not met"
>>> class("target 1 insC 3' of 19,insC 3' of 19 (mixed) RNA 1: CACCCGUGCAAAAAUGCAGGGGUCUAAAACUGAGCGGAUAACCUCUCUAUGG RNA 2: GGGAAUGGAUCCACAUCUACGAAUUCGUACCAUCCAGAGAGGUUAUCCGCUCACCGAGAUCGGAAGAGCACACGU")
"rule not met"
>>> class("target 2 MT 5'PFS UCG 3'PFS UAU (mixed) RNA 1: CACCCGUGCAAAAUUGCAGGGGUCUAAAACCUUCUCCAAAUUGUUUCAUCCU RNA 2: GGGAAUGGAUCCACAUCUACGAAUUCUCGAGGAUGAAACAAUUUGGAGAAGUAUAGAUCGGAAGAGCACACGU")
"rule not met"
>>> class("target 1 C7A,U8G (mixed) RNA 1: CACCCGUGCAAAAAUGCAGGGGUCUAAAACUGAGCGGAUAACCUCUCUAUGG RNA 2: GGGAAUGGAUCCACAUCUACGAAUUCGUACCAUAGAGAGGUUAGACGCUCACCGAGAUCGGAAGAGCACACGU")
"rule met"
>>> class("target 1 insU 3' of 20,insU 3' of 4 (mixed) RNA 1: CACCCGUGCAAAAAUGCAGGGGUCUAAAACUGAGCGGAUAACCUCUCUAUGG RNA 2: GGGAAUGGAUCCACAUCUACGAAUUCGUACCAUUAGAGAGGUUAUCCGCUUCACCGAGAUCGGAAGAGCACACGU")
"rule met"
>>> class("target 3 insA 3' of 21,insU 3' of 5 (mixed) RNA 1: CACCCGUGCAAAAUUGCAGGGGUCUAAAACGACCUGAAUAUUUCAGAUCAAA RNA 2: GGGAAUGGAUCCACAUCUACGAAUUCGUUUUAUGAUCUGAAAUAUUCAUGGUCUGCAGAUCGGAAGAGCACACGU")
"rule not met"
>>> class("target 2 MT 5'PFS ACU 3'PFS UUG (mixed) RNA 1: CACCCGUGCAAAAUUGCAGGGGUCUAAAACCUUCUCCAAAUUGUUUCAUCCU RNA 2: GGGAAUGGAUCCACAUCUACGAAUUCACUAGGAUGAAACAAUUUGGAGAAGUUGAGAUCGGAAGAGCACACGU")
"rule met"
>>> class("target 3 insA 3' of 22,insC 3' of 2 (mixed) RNA 1: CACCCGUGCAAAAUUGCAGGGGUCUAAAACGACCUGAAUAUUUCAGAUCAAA RNA 2: GGGAAUGGAUCCACAUCUACGAAUUCGUUUAUUGAUCUGAAAUAUUCAGGUCCUGCAGAUCGGAAGAGCACACGU")
"rule not met"
